Data origin: the supplement of paper PMC6555819

# Tested on: THRa:RXRa (NR concentration 90 nM, RXRa partner concentration 90 nM)
# test-description: PBM binding z-score (relative to random genomic background probes); higher = stronger binding; sequences stand for … in GC…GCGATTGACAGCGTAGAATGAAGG
Given measured PBM binding z-score, output met if it is greater than or equal to 3 and not met if not.

Look over these answered cases.
>>> assigned_category("TTTTGTAGATCAGCAGGTTAAGAAAGCTGGCCAA")
"not met"
>>> assigned_category("CGTCCTAGGTCAGAGAGGTCAGTGAATGCCGAGT")
"met"
>>> assigned_category("TGAATGAGGTTATAAGAGCAGGGAACGTTGCAAA")
"not met"

Consider the additional sequence presented here.
Item "ACTATTAGCTGACTTAGGGCAACCGATACGACGC" with PBM binding z-score of 3 or above?
not met

---

# System: RARb:RXRa (NR concentration 270 nM, RXRa partner concentration 90 nM)
# test-description: PBM binding z-score (relative to random genomic background probes); higher = stronger binding; sequences stand for … in GC…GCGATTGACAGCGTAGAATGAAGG
Label condition met for high-side PBM binding z-score (at or above 2) and condition not met for low-side PBM binding z-score (below it).

A selection of reference data follows.
>>> assigned_category("AATCAAAGTTCAGGACGAGGTAACGTAAAGCACG")
"condition met"
>>> assigned_category("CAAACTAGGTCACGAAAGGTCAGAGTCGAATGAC")
"condition met"
>>> assigned_category("AGTCAAAGTTCATATAGGTAACGTAAGATATGCT")
"condition met"
>>> assigned_category("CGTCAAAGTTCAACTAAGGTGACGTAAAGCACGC")
"condition met"
>>> assigned_category("CGAACTAGGTCAGAACAGGACAGCGAAGGATGAT")
"condition met"

Would you say "CATACAGGGTCAGCTTGGCCAGAGTAGGGACGGC" shows PBM binding z-score at minimum 2?
condition met

// inclusive: PBM binding z-score at least 2? input: "CATACAGGTTCAGCTAGGCCAGAGTAGGGACGGC"
condition not met

Hi, just wondering whether "TAGCCTAGGTCATTCAGGGGCCCGTATAGAAAGC" shows PBM binding z-score of 2 or higher.
condition met

Kindly determine if PBM binding z-score recorded for "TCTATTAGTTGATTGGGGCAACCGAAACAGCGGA" is above or exactly 2.
condition not met

Exam item: decide whether the reported PBM binding z-score for "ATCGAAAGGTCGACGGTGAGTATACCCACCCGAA" is at least 2.
condition met

---

PBM binding z-score listing for selected sequences.
# Tested on: PPARg:RXRa 90nM:30nM, anti-RXR (NR concentration 90 nM, RXRa partner concentration 30 nM)
# test-description: PBM binding z-score (relative to random genomic background probes); higher = stronger binding; sequences stand for … in GC…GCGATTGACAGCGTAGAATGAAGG
Give only the figure.

Any idea what its PBM binding z-score is? The sequence is "CCGACTGGGGTATAAGGTTACCATAAGCCAGCCC"
2.06

---

# Test system: FXR:RXRa (NR concentration 270 nM, RXRa partner concentration 90 nM)
# test-description: PBM binding z-score (relative to random genomic background probes); higher = stronger binding; sequences stand for … in GC…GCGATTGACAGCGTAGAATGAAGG
Lab note: anything with PBM binding z-score at or over 0.3 counts as MET; the rest go in NOT MET.

Use the examples below as a reference point.
>>> assigned_category("ATCTCTAGGGAAAGTTCAGTGAAAGATCGATAGA")
"MET"
>>> assigned_category("GCTGCTAGGTCAGGTTGGTCAGCCAACGGGTACG")
"MET"
>>> assigned_category("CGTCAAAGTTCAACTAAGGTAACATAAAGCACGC")
"MET"
>>> assigned_category("ATATGTAGGTTAAGGGCCATTCAGGTTGGTTCGC")
"MET"
>>> assigned_category("TCAGACAGGTGAAGGTAAGTCAGGTACGCAGTCG")
"MET"
>>> assigned_category("CCTAGGTGGTCAAGGTCACACACGCTATAGGTAC")
"MET"
>>> assigned_category("TCTGCTAGGTCCGTTGGTCAGCTAACGAGCTGCC")
"NOT MET"
>>> assigned_category("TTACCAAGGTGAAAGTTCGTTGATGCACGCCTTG")
"MET"
>>> assigned_category("CCTACAGGGCCATTCAGAGGTCATTGATCATATG")
"MET"
>>> assigned_category("ACAGAAAGGTGATGAAGGTAACTCAGGCTATCAT")
"MET"

Is PBM binding z-score for "ATCGAAAGGTCGTCAGGTGAGTATACAGAAAGGC" at or above 0.3?
MET

Can "ACTAGCAGGCCAAGGGACACTCAAGATTAGTCCG" be said to have PBM binding z-score at or above 0.3?
NOT MET

Is PBM binding z-score at least 0.3? Consider "CGTCCAAGGTCAAGATCAGTGAAAGAGACTCGAA"
MET

Check if PBM binding z-score >= 0.3 (inclusive). Item: "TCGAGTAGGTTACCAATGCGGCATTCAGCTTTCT"
NOT MET

Please check the record "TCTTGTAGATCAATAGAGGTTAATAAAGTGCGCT" and state if its PBM binding z-score is at or above 0.3.
MET

Hello, I need to know if "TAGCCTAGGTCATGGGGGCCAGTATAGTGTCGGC" has measured PBM binding z-score not below 0.3. Thanks!
MET

Assess whether reported PBM binding z-score for "TTACCAAGGTGAGCTGAGGTAGTTGATCCAACTC" sits at 0.3 or higher.
NOT MET

Determine whether measured PBM binding z-score meets or exceeds 0.3 for "ATATGTAGGTTAGATCCGGGTCATTCAGGCTATG"
MET

Given the entry "TGAATGAGGTAAAAGATCAGGGAACGTGGCGTCG" , answer whether its PBM binding z-score meets or surpasses 0.3.
MET

Given "CCTGCTCGGTCATGGTCAGCTAATCTACAGTATG" , state whether its PBM binding z-score is at least 0.3.
NOT MET

Does "ATCTCTAGGTAAGACTCAGTTCAGTAAAGAACGC" have a reported PBM binding z-score of at least 0.3?
MET

// inclusive: PBM binding z-score at least 0.3? input: "ACTATTAATTGACTTAGGGCAACCGATACGACGC"
NOT MET

Given the entry "CCTTACGCGTCACGAGGTTATAGCACGACGAGCG" , answer whether its PBM binding z-score meets or surpasses 0.3.
MET

Entry "ACTAGCAGGCCAAGGGTCACACAAGATTAGTCCG" : is its PBM binding z-score no less than 0.3?
MET

Determine whether this sequence has PBM binding z-score no lower than 0.3: "ATCTCTAGGTAACCAGTTCAGTGAAAGAGAGGAC"
MET
